Where do these numbers come from? They come from ChEMBL document CHEMBL1201862.

Tested on: SF-268
Assay Info: NCI tumour cell line growth inhibition, 48 h
The source made the active and inactive calls. Cut-off read from the data, not from the text of the source: active = GI50 up to about 1.1 µM and inactive = higher. Residues, ends and D or L forms follow the SMILES beside them. *: point of attachment. Cbz = O=C(OCc1ccccc1)*
GI50 reference

• CCCCCCCC/C=C/CCCCCCCC1CC(O)C(=O)O1 (stereo not given) = 46.2 µM (inactive)
• C/C(=N\NC(N)=S)c1ccc(C)c(C)c1 = > 100 µM (inactive)
• CCOC(=O)CCC(NC(=O)OCc1ccccc1)C(=O)NC(CCC(=O)OCC)C(=O)OCC (stereo not given) (Cbz-Glu(OEt)-Glu(OEt)-OEt; configuration not given here) = > 100 µM (inactive)
• COC(C)(C)C1=CCC(C)CC1 (stereo not given) = > 100 µM (inactive)

For CNC1Cc2c[nH]c3cccc(c23)C12C=C(C)C(=O)O2 (stereo not given) the molecule record lists GI50 as > 100 µM (inactive)

For C[N+]12C=CC=C1C(N1CCCC1)c1scc(-c3ccc(Br)cc3)c12 (stereo not given) the molecule record lists GI50 as 3.15 µM (inactive)

For "Cc1cc(N2CCCCC2)nc2ccc(Cc3ccc4nc(N5CCCCC5)cc(C)c4c3)cc12" the molecule record lists GI50 as > 100 µM (inactive)

For "Nc1nc(S)c2c(N)n[nH]c2c1C(=O)Nc1ccccc1" the molecule record lists GI50 as > 100 µM (inactive)

For COc1ccc(/C(=N\NC(=O)C(N)=O)C(c2ccc(OC)cc2)C2(O)C(=O)Nc3c(Cl)cccc32)cc1 (stereo not given) the molecule record lists GI50 as > 100 µM (inactive)

For COC(=O)c1ccccc1C1CN=NC12Cc1ccc3ccccc3c1C2=O (stereo not given) the molecule record lists GI50 as > 100 µM (inactive)

For CC(C)C1=CC23CCC4C(C)(C(=O)O)CCCC4(C)C2CC1C1C(=O)N(c2ccc(N4C(=O)C5C6CC7C8(C)CCCC(C)(C(=O)O)C8CCC7(C=C6C(C)C)C5C4=O)cc2)C(=O)C13 (stereo not given) the molecule record lists GI50 as 4.7 µM (inactive)

For "C[N+](C)(C)C1=NNC2=Nc3ccccc3SC2=C1" the molecule record lists GI50 as 35 µM (inactive)

For "COc1cc(/C=C2\C(=O)N(C(=O)Cc3ccccc3)N=C2C)ccc1O" the molecule record lists GI50 as > 100 µM (inactive)

For COC(=O)CC(NC(=O)OCc1ccccc1)C(C(=O)OCc1ccccc1)C(C)(OC)OC (stereo not given) the molecule record lists GI50 as 39.9 µM (inactive)

For "COc1cc2c3c(n(C)c(=O)c2cc1OC)-c1cc2c(cc1/C3=C/CCCCBr)OCO2" the molecule record lists GI50 as 37.4 µM (inactive)

For "CC(C)OP(=O)(OC(C)C)/C(=N/Nc1ccc([N+](=O)[O-])cc1)NCCO" the molecule record lists GI50 as > 100 µM (inactive)

For C=C(C)C1CC2(C)C(C)CC(O)CC2C(OC(=O)C=C(C)C)C1O (stereo not given) the molecule record lists GI50 as 23.7 µM (inactive)

For "Cc1ccc(C(CCO)CCO)nc1" the molecule record lists GI50 as > 100 µM (inactive)

For O=C(NC(Cc1ccccc1)(Cc1ccc(O)cn1)C(=O)O)c1ccccc1 (stereo not given) the molecule record lists GI50 as > 100 µM (inactive)

For "COc1cc(Nc2nc3ccccc3nc2-c2cccs2)cc(OC)c1OC" the molecule record lists GI50 as 25.8 µM (inactive)

For "N#CCCN(CCC#N)c1ccc(/C=C2\N=C(c3cc([N+](=O)[O-])ccc3Cl)OC2=O)cc1" the molecule record lists GI50 as 45.1 µM (inactive)

---

System: HL-60
Assay Info: NCI tumour cell line growth inhibition, 48 h
Calls of active or inactive are those of the source. Cut-off read from the data, not from the text of the source: active = GI50 up to about 1.1 µM and inactive = higher.
Quantity: GI50

• COc1cc2nc(-c3cccc(N(C)C)c3)cc(O)c2cc1OC = 2.7 µM (inactive)
• CC(C)(c1ccc(Oc2ccc(C#N)c(C#N)c2)cc1)c1ccc(Oc2ccc(C#N)c(C#N)c2)cc1 = > 10 µM (inactive)
• CC(=O)c1nc2ccccc2n1CC(=O)c1ccc([N+](=O)[O-])cc1 = 13.8 µM (inactive)
• C#CC(O)/C=C/C(O)CCCC(O)CC#CC(O)C#CC(O)CCCC(O)/C=C/CCCC(=O)CCCCCCCCCCCCCCCC(O)C(O)C#CC(=O)O (centres undefined) = 13.2 µM (inactive)
• CCOC(=O)c1ccc(Nc2nc3ccccc3nc2-c2cccs2)cc1 = 24.8 µM (inactive)

// returns GI50 for COc1ccc(C(=O)CC(c2ccc(OC)c(OC)c2)c2c(O)oc3ccccc3c2=O)cc1OC (centres undefined) with HL-60; value = > 100 µM (inactive)

// returns GI50 for O=C(O)C1OC(Oc2cc(O)c3c(=O)cc(-c4ccc(O)cc4)oc3c2)C(O)C(O)C1O (centres undefined) with HL-60; value = > 100 µM (inactive)

// returns GI50 for "CC(C)C(=O)NC(=S)Nc1ccc([N+](=O)[O-])cc1C#N" with HL-60; value = > 100 µM (inactive)

// returns GI50 for CC(=O)OCC12CN(C#N)C3C4COC(CC41)C1(C(=O)N(C)c4ccccc41)C32 (centres undefined) with HL-60; value = 11.2 µM (inactive)

---

System: EKVX
Assay Info: NCI tumour cell line growth inhibition, 48 h
Activity calls are given as the source filed them. Cut-off read from the data, not from the text of the source: active = GI50 up to about 1.1 µM and inactive = higher.
Quantity: GI50

Look over these answered cases.
- C[Si]1(C)C(c2ccccc2)=CC2C(c3ccccc3)(c3ccccc3)OC21c1ccccc1 (stereo not drawn): > 100 µM (inactive)
- O=C1c2cccnc2S(=O)(=O)N1c1ccc(Oc2ccccc2)cc1: > 100 µM (inactive)

Shift focus to the following entry.
For "O=S1(=O)CCN(Cc2ccccn2)CC1" the compound record lists GI50 as > 100 µM (inactive)

---

These compounds were tested on HCT-15; GI50 is the recorded read-out.

* CNc1nc(SC)nc2c1c(N)nn2C | > 100 µM
* C#CCOC(=O)C=[N+]=[N-] | > 10 µM
* CC1CC(C#N)=C2NCCN2C1=O (centres undefined) | > 100 µM

Shift focus to the following entry.
// returns GI50 for "COc1cc(CNC(=O)CCCCCCCCCCSSCCCCCCCCCCC(=O)NCc2ccc(O)c(OC)c2)ccc1O" with HCT-15; value = > 10 µM

---

System: RPMI-8226
Assay Info: NCI tumour cell line growth inhibition, 48 h
Calls of active or inactive are those of the source. No stated cut-off is given here; in the data, active = GI50 up to about 1.1 µM and inactive = higher.
GI50 reference

Look over these answered cases.
- COc1cc2ncnc(NS(=O)(=O)c3cc4ccccc4s3)c2cc1OC: 58.3 µM (inactive)
- CC1CC(C#N)=C2NCCN2C1=O (stereo not given): > 100 µM (inactive)

For "O=C1/C(=C/c2ccccc2)CCC/C1=C\c1ccc(O)c(CN2CCCCC2)c1" the compound record lists GI50 as 3.27 µM (inactive)

For "COc1c(C)c(C/C=C(\C)CCCCO)c(OC)c(OC)c1OC" the compound record lists GI50 as 10.3 µM (inactive)

For "C#CCOC(=O)C=[N+]=[N-]" the compound record lists GI50 as > 10 µM (inactive)

---

Test system: DLD-1
Assay Info: NCI tumour cell line growth inhibition, 48 h
Calls of active or inactive are those of the source. Cut-off read from the data, not from the text of the source: active = GI50 up to about 1.1 µM and inactive = higher.
I would appreciate it if you answered using one of these outcomes: true (1) (active), false (0) (inactive)

The following compounds have reported results that may help.
* C[Si]1(C)C(c2ccccc2)=CC2C(c3ccccc3)(c3ccccc3)OC21c1ccccc1 (configuration not stated) | false (0)
* CCOC1c2cc(C(C)C)c(O)c(O)c2[C@@]23CCCC(C)(C)C2C1OC3=O (some centres not stated) | false (0)
* Nc1ccc2c(c1)C(=O)N(OS(=O)(=O)c1ccccc1)C2=O | false (0)
* Cc1c2ccnc(C(F)(F)F)c2cc2c1[nH]c1ccccc12 | false (0)
* C=CCc1ccc(Oc2cc(CC=C)c3c(c2O)O[C@@H](CO)[C@H]3c2ccc(O)c(-c3cc(CC=C)ccc3O)c2)cc1 | false (0)
* COc1ccc2nc3ccccc3c(NCCCCCCN(CCCl)CCCl)c2c1 | true (1)

// switching to the query compound
Recorded test call requested for "C/C(=C(/C)c1cc[n+](C)cc1)c1cc[n+](C)cc1"
false (0)

---

Test system: HL-60
Assay Info: NCI tumour cell line growth inhibition, 48 h
Active and inactive are the calls of the source. No stated cut-off is given here; in the data, active = GI50 up to about 1.1 µM and inactive = higher.
I would appreciate it if you answered using one of these outcomes: Y (active), N (inactive)

- O=C1C2=C(c3ccccc31)C(c1ccc([N+](=O)[O-])cc1)NC(S)=N2 (centres undefined): N
- CCOC1CCC2C(CCC(/C=C/c3ccc(O)c4ncccc34)N2C)C1 (centres undefined): N
- CCOC(=O)C(Cc1ccc(O)cc1)Nc1nc(=O)c2c(=O)oc(Cl)cc2o1 (centres undefined): N

// switching to the query compound
Recorded test call requested for "CCCn1c(CN(Cc2nc3ccccc3n2CCC)Cc2nc3ccccc3n2CCC)nc2ccccc21"
Y
